# Organism: Rattus norvegicus
# assay.summary: Open TG-GATES - Regimen: Daily Repeat
# Type: toxicity, organism-based, Sprague-Dawley
# Set-up: regimen Daily Repeat, gender Male, age 6 weeks
# settings: in vivo, po, 1000 mg/kg, […], tissue Blood, route gavage, dose level High, time 7 day
quantity.measured: RBC (x10_4/ul)
Report the figure in x10_4/ul without appending any unit label.

Below, 2 compounds whose answers are already recorded.
- compound: "O=C(N[C@H](CO)[C@H](O)c1ccc([N+](=O)[O-])cc1)C(Cl)Cl"
  RBC / x10_4/ul: 631.6
- compound: "CC(C)(S)[C@@H](N)C(=O)O"
  RBC / x10_4/ul: 687.8

Problem: Identify RBC associated with the compound CCN1CCCC1CNC(=O)c1cc(S(N)(=O)=O)ccc1OC (centres undefined) [SULPIRIDE]
Result: 673.8

Problem: Identify RBC associated with the compound `O=C(O)c1cccnc1`
Result: 659.8

###

# Species on record: Rattus norvegicus
# assay.summary: Open TG-GATES - Regimen: Daily Repeat
# Assay type: toxicity, organism-based, Sprague-Dawley
# Parameters: regimen Daily Repeat, gender Male, age 6 weeks
# settings: in vivo, po, 300 mg/kg, 72 h, tissue Plasma, route gavage, dose level Middle, time 3 day
Each entry below lists one item and its recorded TC value.
Report the figure in mg/dL without appending any unit label.

Problem: Identify TC associated with the compound `CC(C)(S)[C@@H](N)C(=O)O`
Result: 81.2

Problem: Identify TC associated with the compound `O=C(O)c1cccnc1`
Result: 73.2

Problem: Identify TC associated with the compound CCN1CCCC1CNC(=O)c1cc(S(N)(=O)=O)ccc1OC (centres undefined) [SULPIRIDE]
Result: 78.4

Problem: Identify TC associated with the compound `O=C(N[C@H](CO)[C@H](O)c1ccc([N+](=O)[O-])cc1)C(Cl)Cl`
Result: 88.4

###

# Organism: Rattus norvegicus
# assay.summary: Open TG-GATES - Regimen: Daily Repeat
# Assay type: toxicity, organism-based, Sprague-Dawley
# Set-up: regimen Daily Repeat, gender Male, age 6 weeks
# settings: in vivo, po, 100 mg/kg, 72 h, tissue Plasma, route gavage, dose level Low, time 3 day
quantity.measured: TP (g/dL)
Report the figure in g/dL without appending any unit label.

- compound: "O=C(N[C@H](CO)[C@H](O)c1ccc([N+](=O)[O-])cc1)C(Cl)Cl [CHLORAMPHENICOL]"
  val: 5.4
- compound: "O=C(O)c1cccnc1 [NIACIN]"
  val: 5.8
- compound: "CC(C)(S)[C@@H](N)C(=O)O [PENICILLAMINE]"
  val: 5.7

Field: next compound
Problem: Identify TP associated with the compound CCN1CCCC1CNC(=O)c1cc(S(N)(=O)=O)ccc1OC (centres undefined) [SULPIRIDE]
Result: 5.6

###

Each entry below lists one item and its recorded Hb value.
# Species on record: Rattus norvegicus
# assay.summary: Open TG-GATES - Regimen: Single
# Type: toxicity, organism-based, Sprague-Dawley
# Set-up: regimen Single, gender Male, age 6 weeks
# settings: in vivo, po, 0 mg/kg, 6 h, tissue Blood, route gavage, dose level Control
Report the figure in g/dL without appending any unit label.

Below, 3 compounds whose answers are already recorded.
- compound: "CCSCC[C@H](N)C(=O)O"
  Hb [g/dL]: 13.6
- compound: "CC(=O)Oc1cc(C(C)C)c(OCCN(C)C)cc1C"
  Hb [g/dL]: 13.7
- compound: "C[C@](N)(Cc1ccc(O)c(O)c1)C(=O)O"
  Hb [g/dL]: 13.4

Problem: Identify Hb associated with the compound `C#C[C@]1(O)CC[C@H]2[C@@H]3CCc4cc(O)ccc4[C@H]3CC[C@@]21C`
Result: 13.2

Problem: Identify Hb associated with the compound CC(C)C(=O)Nc1ccc([N+](=O)[O-])c(C(F)(F)F)c1 [FLUTAMIDE]
Result: 13.7

Problem: Identify Hb associated with the compound `Oc1ncnc2[nH]ncc12`
Result: 14.1

Problem: Identify Hb associated with the compound `Nc1nc(N)c2nc(-c3ccccc3)c(N)nc2n1`
Result: 13.9

###

# Species: Rattus norvegicus
# assay.summary: Open TG-GATES - Regimen: Daily Repeat
# Format: toxicity, organism-based, Sprague-Dawley
# Set-up: regimen Daily Repeat, gender Male, age 6 weeks
# settings: in vivo, po, 100 mg/kg, […], tissue Blood, route gavage, dose level Low, time 14 day
Each entry below lists one item and its recorded RBC value.
Report the figure in x10_4/ul without appending any unit label.

- compound: "CCN1CCCC1CNC(=O)c1cc(S(N)(=O)=O)ccc1OC (centres undefined) [SULPIRIDE]"
  val: 708
- compound: "O=C(O)c1cccnc1"
  val: 685
- compound: "O=C(N[C@H](CO)[C@H](O)c1ccc([N+](=O)[O-])cc1)C(Cl)Cl"
  val: 698.2

Field: next compound
Problem: Identify RBC associated with the compound `CC(C)(S)[C@@H](N)C(=O)O`
Result: 716

###

Each entry below lists one item and its recorded KIDNEY_R value.
# Organism: Rattus norvegicus
# assay.summary: Open TG-GATES - Regimen: Single
# Format: toxicity, organism-based, Sprague-Dawley
# Design: regimen Single, gender Male, age 6 weeks
# settings: in vivo, po, 0 mg/kg, 3 h, tissue Kidney, route gavage, dose level Control
Report the figure in g without appending any unit label.

Below, 4 compounds whose answers are already recorded.
- compound: "C[C@]12CCC(=O)C=C1CC[C@@H]1[C@@H]2CC[C@@]2(C)[C@H]1CC[C@]2(C)O [METHYLTESTOSTERONE]"
  unit.label: "g"
  KIDNEY_R: 0.9
- compound: "CCc1oc2ccccc2c1C(=O)c1cc(I)c(O)c(I)c1 [BENZIODARONE]"
  unit.label: "g"
  KIDNEY_R: 1
- compound: "CC(=N)S [THIOACETAMIDE]"
  unit.label: "g"
  KIDNEY_R: 0.9
- compound: "CN1C(=O)OC(C)(C)C1=O [TRIMETHADIONE]"
  unit.label: "g"
  KIDNEY_R: 0.9

Problem: Identify KIDNEY_R associated with the compound CCN1CCCC1CNC(=O)c1cc(S(N)(=O)=O)ccc1OC (stereo not given) [SULPIRIDE]
Result: 0.9

###

# Species on record: Rattus norvegicus
# assay.summary: Open TG-GATES - Regimen: Daily Repeat
# Format: toxicity, organism-based, Sprague-Dawley
# Set-up: regimen Daily Repeat, gender Male, age 6 weeks
# settings: in vivo, po, 300 mg/kg, […], tissue Blood, route gavage, dose level Middle, time 14 day
Each entry below lists one item and its recorded MCHC value.
Report the figure in % without appending any unit label.

Below, 3 molecules whose answers are already recorded.
- molecule: "CC(C)(S)[C@@H](N)C(=O)O"
  MCHC / %: 33.8
- molecule: "O=C(O)c1cccnc1"
  MCHC / %: 33.7
- molecule: "CCN1CCCC1CNC(=O)c1cc(S(N)(=O)=O)ccc1OC (centres undefined) [SULPIRIDE]"
  MCHC / %: 33.4

Field: next molecule
Problem: Identify MCHC associated with the molecule `O=C(N[C@H](CO)[C@H](O)c1ccc([N+](=O)[O-])cc1)C(Cl)Cl`
Result: 32.5

###

# Organism: Rattus norvegicus
# assay.summary: Open TG-GATES - Regimen: Daily Repeat
# Type: toxicity, organism-based, Sprague-Dawley
# Design: regimen Daily Repeat, gender Male, age 6 weeks
# settings: in vivo, po, 100 mg/kg, […], tissue Plasma, route gavage, dose level Low, time 14 day
quantity.measured: ALT (IU/L)
Report the figure in IU/L without appending any unit label.

Below, 3 molecules whose answers are already recorded.
- molecule: "CC(C)(S)[C@@H](N)C(=O)O [PENICILLAMINE]"
  unit.label: "IU/L"
  val: 42.8
- molecule: "O=C(N[C@H](CO)[C@H](O)c1ccc([N+](=O)[O-])cc1)C(Cl)Cl [CHLORAMPHENICOL]"
  unit.label: "IU/L"
  val: 41.8
- molecule: "CCN1CCCC1CNC(=O)c1cc(S(N)(=O)=O)ccc1OC (centres undefined) [SULPIRIDE]"
  unit.label: "IU/L"
  val: 38.8

Field: next molecule
Problem: Identify ALT associated with the molecule O=C(O)c1cccnc1 [NIACIN]
Result: 42.8

###

Each entry below lists one item and its recorded TP value.
# Organism: Rattus norvegicus
# assay.summary: Open TG-GATES - Regimen: Single
# Type: toxicity, organism-based, Sprague-Dawley
# Parameters: regimen Single, gender Male, age 6 weeks
# settings: in vivo, po, 0 mg/kg, 9 h, tissue Plasma, route gavage, dose level Control
Report the figure in g/dL without appending any unit label.

Below, 5 compounds whose answers are already recorded.
- compound: "C#C[C@]1(O)CC[C@H]2[C@@H]3CCc4cc(O)ccc4[C@H]3CC[C@@]21C [ETHINYL ESTRADIOL]"
  unit.label: "g/dL"
  val: 5.2
- compound: "C[C@]12CCC(=O)C=C1CC[C@@H]1[C@@H]2CC[C@@]2(C)[C@H]1CC[C@]2(C)O [METHYLTESTOSTERONE]"
  unit.label: "g/dL"
  val: 5.4
- compound: "CN1C(=O)OC(C)(C)C1=O [TRIMETHADIONE]"
  unit.label: "g/dL"
  val: 5.4
- compound: "CC(C)(S)[C@@H](N)C(=O)O [PENICILLAMINE]"
  unit.label: "g/dL"
  val: 5.4
- compound: "CCN1CCCC1CNC(=O)c1cc(S(N)(=O)=O)ccc1OC (stereo not given) [SULPIRIDE]"
  unit.label: "g/dL"
  val: 5.3

Problem: Identify TP associated with the compound CCSCC[C@H](N)C(=O)O [ETHIONINE]
Result: 5.5

Problem: Identify TP associated with the compound CC(C)C(=O)Nc1ccc([N+](=O)[O-])c(C(F)(F)F)c1 [FLUTAMIDE]
Result: 5.3

Problem: Identify TP associated with the compound CC(=O)Oc1cc(C(C)C)c(OCCN(C)C)cc1C [MOXISYLYTE]
Result: 5.4

Problem: Identify TP associated with the compound CCc1oc2ccccc2c1C(=O)c1cc(I)c(O)c(I)c1 [BENZIODARONE]
Result: 5.3

Problem: Identify TP associated with the compound `Nc1nc(N)c2nc(-c3ccccc3)c(N)nc2n1`
Result: 5.2
